This collection of values is drawn from patent US4258184A.

# Test system: Salmonella typhi O-901-W
# TEST DESCRIPTION: Minimum prohibiting/inhibition concentration by agar plate dilution method
# Type: cell-based
# SETTINGS: Salmonella enterica, read-out: Minimum prohibiting concentration
PARAMETER: MIC (µg/mL)
Numbers only, in µg/mL.

Cc1ccc(-c2ccc(C(=O)N[C@@H](C(=O)NC3C(=O)N4C(C(=O)[O-])=C(CSc5nnc(C(N)=O)s5)CS[C@H]34)c3ccc(O)cc3)c(O)n2)cc1.[Na+] (stereo partly shown) | 1.56
CC1(C)S[C@@H]2[C@H](NC(=O)C(C(=O)O)c3ccccc3)C(=O)N2[C@H]1C(=O)O (stereo partly shown) [Carbenicillin disodium, reference compound] | 12.5
Cc1ccc(-c2ccc(C(=O)N[C@@H](C(=O)NC3C(=O)N4C(C(=O)O)=C(CSc5nnc(C(N)=O)s5)CS[C@H]34)c3ccccc3)c(O)n2)cc1 (stereo partly shown) | 3.13

Now look at this entry.
// query # assay system Salmonella typhi O-901-W: give MIC of Cc1nnc(SCC2=C(C(=O)O)N3C(=O)[C@@H](NC(=O)Cn4cnnn4)[C@H]3SC2)s1 [Cefazolin Na, reference compound]
// result 3.13
